Tested on: horse erythrocytes
Condition context: 375 µM
Peptide text beside a SMILES is read from it.
Measured parameter: Hemolysis (%)
Hi! Could you send only the number? It should be in %, unit omitted.

CC[C@H](C)[C@H](NC(=O)[C@H](CCCNC(=N)N)NC(=O)[C@H](CCCNC(=N)N)NC(=O)[C@H](CC(C)C)NC(=O)[C@H](Cc1c[nH]c2ccccc12)NC(=O)[C@H](C)NC(=O)[C@H](CCCCN)NC(=O)[C@@H](NC(=O)[C@H](CCCNC(=N)N)NC(=O)[C@H](CCCNC(=N)N)NC(=O)[C@H](CC(C)C)NC(=O)[C@@H](N)Cc1c[nH]c2ccccc12)[C@@H](C)CC)C(=O)N[C@@H](CCCCN)C(=O)N[C@@H](C)C(=O)O ... 17.8
CC[C@H](C)[C@H](NC(=O)[C@H](CCCNC(=N)N)NC(=O)[C@@H](NC(=O)[C@H](C)NC(=O)[C@@H](NC(=O)[C@@H](NC(=O)[C@H](CC(C)C)NC(=O)[C@H](CCCNC(=N)N)NC(=O)[C@@H](N)C(C)C)[C@@H](C)CC)C(C)C)C(C)C)C(=O)N[C@@H](Cc1c[nH]c2ccccc12)C(=O)N[C@@H](CCCNC(=N)N)C(=O)N[C@@H](CCCNC(=N)N)C(N)=O [IDR-1018] (H-VRLIVAVRIWRR-NH2; N-terminus and C-terminus assumed) ... 45.9
CC[C@H](C)[C@H](NC(=O)[C@H](C)NC(=O)[C@H](Cc1c[nH]cn1)NC(=O)[C@@H]1CCCN1C(=O)[C@@H](NC(=O)[C@H](CC(C)C)NC(=O)[C@H](CO)NC(=O)[C@H](Cc1ccccc1)NC(=O)[C@H](CC(C)C)NC(=O)[C@@H](N)Cc1ccccc1)[C@@H](C)CC)C(=O)NCC(=O)NCC(=O)N[C@@H](CC(C)C)C(=O)N[C@H](C(=O)N[C@@H](CO)C(=O)N[C@@H](C)C(=O)N[C@@H](Cc1ccccc1)C(=O)N[C@@H](CCCCN)C(N)=O)[C@@H](C)CC ... 100.0

For the next question, use this compound.
Request: Given the entry CC[C@H](C)[C@H](NC(=O)[C@H](CCCNC(=N)N)NC(=O)[C@H](Cc1ccccc1)NC(=O)[C@H](CCCNC(=N)N)NC(=O)[C@@H](N)CCCCN)C(=O)N[C@@H](CCCNC(=N)N)C(=O)N[C@H](C(=O)N[C@@H](CCCNC(=N)N)C(=O)N[C@H](C(=O)N[C@H](C(=O)N[C@@H](CCCNC(=N)N)C(=O)N[C@@H](CCCCN)C(N)=O)[C@@H](C)CC)C(C)C)C(C)C [HH15] (H-KRFRIRVRVIRK-NH2) , what Hemolysis was observed with horse erythrocytes?
Response: 4.0

----------
# reported Bactericidal activity: Reduction in viability (Log N0/N); entries follow
Tested on: X. fastidiosa subsp. fastidiosa IVIA 5387.2
Condition context: 50 µM
Square brackets hold non-standard residues; d marks the D form. Peptide text beside a SMILES is read from it. * marks the point of attachment. Hexanoyl = CCCCCC(=O)*
Hi! Could you send only the number? It should be in Log N0/N, unit omitted.

Worked cases, Bactericidal activity: Reduction in viability (Log N0/N) given:
CCCCCC(=O)N[C@H](C(=O)N[C@@H](CC(C)C)C(=O)N1CCC[C@H]1C(=O)N[C@H](Cc1ccccc1)C(=O)N[C@@H](CCCCN)C(=O)N[C@H](Cc1ccccc1)C(=O)N1CCC[C@H]1C(=O)N[C@H](Cc1ccccc1)C(=O)N[C@H](Cc1ccccc1)C(=O)N1CCC[C@H]1C(=O)N[C@H](Cc1ccccc1)C(=O)N[C@@H](CCCNC(=N)N)C(=O)N[C@@H](CCCNC(=N)N)C(N)=O)[C@@H](C)CC [BP527] (Hexanoyl-ILP[dF]K[dF]P[dF][dF]P[dF]RR-NH2) ... 0.49
CC[C@H](C)[C@H](NC(=O)[C@H](CCCNC(=N)N)NC(=O)[C@@H](NC(=O)[C@H](Cc1c[nH]c2ccccc12)NC(=O)[C@@H](NC(=O)[C@@H](NC(=O)[C@@H](N)CCCNC(=N)N)[C@@H](C)CC)C(C)C)C(C)C)C(=O)N[C@@H](CCCNC(=N)N)C(=O)N[C@@H](CCCNC(=N)N)C(=O)N[C@@H](Cc1c[nH]c2ccccc12)C(=O)N[C@@H](Cc1ccccc1)C(=O)N[C@H](C(N)=O)C(C)C [RJK2] (H-RIVWVRIRRWFV-NH2) ... 0.70

For the next question, use this compound.
Request: Entry CC[C@H](C)[C@H](NC(=O)[C@H](CCCNC(=N)N)NC(=O)[C@@H](N)Cc1ccccc1)C(=O)N[C@@H](CCCNC(=N)N)C(=O)N[C@H](C(=O)N[C@@H](CCCNC(=N)N)C(=O)N[C@H](C(N)=O)C(C)C)C(C)C [FV7] (H-FRIRVRV-NH2; N-terminus assumed) has what Bactericidal activity: Reduction in viability (Log N0/N)?
Response: 0.07

----------
System: X. fastidiosa subsp. fastidiosa IVIA 5387.2
Assay type: cell-based, Xylella fastidiosa
Condition context: 50 µM
Square brackets hold non-standard residues; d marks the D form. Peptide text beside a SMILES is read from it. * marks the point of attachment. Butyryl = CCCC(=O)*
Measured parameter: Biofilm formation Ratio (treatment/NTC)
Format: numeric value only, no unit, no commentary.

Request: Entry CCCC(=O)N[C@H](C(=O)N[C@@H](CC(C)C)C(=O)N1CCC[C@H]1C(=O)N[C@H](Cc1ccccc1)C(=O)N[C@@H](CCCCN)C(=O)N[C@H](Cc1ccccc1)C(=O)N1CCC[C@H]1C(=O)N[C@H](Cc1ccccc1)C(=O)N[C@H](Cc1ccccc1)C(=O)N1CCC[C@H]1C(=O)N[C@H](Cc1ccccc1)C(=O)N[C@@H](CCCNC(=N)N)C(=O)N[C@@H](CCCNC(=N)N)C(N)=O)[C@@H](C)CC [BP526] (Butyryl-ILP[dF]K[dF]P[dF][dF]P[dF]RR-NH2) has what Biofilm formation Ratio (treatment/NTC)?
Response: 0.17

----------
Tested on: horse erythrocytes
Condition context: 250 µM
Square brackets hold non-standard residues; d marks the D form. Peptide text beside a SMILES is read from it. * marks the point of attachment. Hexanoyl = CCCCCC(=O)*
Measured parameter: Hemolysis

Worked cases, Hemolysis given:
CC[C@H](C)[C@H](N)C(=O)N[C@@H](CC(C)C)C(=O)N1CCC[C@H]1C(=O)N[C@@H](Cc1c[nH]c2ccccc12)C(=O)N[C@@H](CCCCN)C(=O)N[C@@H](Cc1c[nH]c2ccccc12)C(=O)N1CCC[C@H]1C(=O)N[C@@H](Cc1c[nH]c2ccccc12)C(=O)N[C@@H](Cc1c[nH]c2ccccc12)C(=O)N1CCC[C@H]1C(=O)N[C@@H](Cc1c[nH]c2ccccc12)C(=O)N[C@@H](CCCNC(=N)N)C(=O)N[C@@H](CCCNC(=N)N)C(N)=O [Indolicidin] ... 100.0 ± 4.4%
CCCCCC(=O)N[C@H](C(=O)N[C@@H](CC(C)C)C(=O)N1CCC[C@H]1C(=O)N[C@H](Cc1ccccc1)C(=O)N[C@@H](CCCCN)C(=O)N[C@H](Cc1ccccc1)C(=O)N1CCC[C@H]1C(=O)N[C@H](Cc1ccccc1)C(=O)N[C@H](Cc1ccccc1)C(=O)N1CCC[C@H]1C(=O)N[C@H](Cc1ccccc1)C(=O)N[C@@H](CCCNC(=N)N)C(=O)N[C@@H](CCCNC(=N)N)C(N)=O)[C@@H](C)CC [BP527] (Hexanoyl-ILP[dF]K[dF]P[dF][dF]P[dF]RR-NH2) ... 73.6 ± 1.1%
CC[C@H](C)[C@H](NC(=O)[C@H](CCCNC(=N)N)NC(=O)[C@H](CCCNC(=N)N)NC(=O)[C@H](Cc1c[nH]c2ccccc12)NC(=O)[C@H](Cc1ccccc1)NC(=O)[C@@H](N)C(C)C)C(=O)N[C@@H](CCCNC(=N)N)C(=O)N[C@H](C(=O)N[C@@H](Cc1c[nH]c2ccccc12)C(=O)N[C@H](C(=O)N[C@H](C(=O)N[C@@H](CCCNC(=N)N)C(N)=O)[C@@H](C)CC)C(C)C)C(C)C [LJK2] (H-VFWRRIRVWVIR-NH2) ... 43.9 ± 3.7%

Request: Entry CC[C@H](C)[C@H](NC(=O)[C@H](CCCNC(=N)N)NC(=O)[C@H](CCCNC(=N)N)NC(=O)[C@H](CC(C)C)NC(=O)[C@H](Cc1c[nH]c2ccccc12)NC(=O)[C@H](C)NC(=O)[C@H](CCCCN)NC(=O)[C@@H](NC(=O)[C@H](CCCNC(=N)N)NC(=O)[C@H](CCCNC(=N)N)NC(=O)[C@H](CC(C)C)NC(=O)[C@@H](N)Cc1c[nH]c2ccccc12)[C@@H](C)CC)C(=O)N[C@@H](CCCCN)C(=O)N[C@@H](C)C(=O)O [RR4-OH] has what Hemolysis?
Response: 9.8 ± 3.7%

Request: CC[C@H](C)[C@H](NC(=O)[C@H](CCCNC(=N)N)NC(=O)[C@@H](NC(=O)[C@H](Cc1c[nH]c2ccccc12)NC(=O)[C@@H](NC(=O)[C@@H](NC(=O)[C@@H](N)CCCNC(=N)N)[C@@H](C)CC)C(C)C)C(C)C)C(=O)N[C@@H](CCCNC(=N)N)C(=O)N[C@@H](CCCNC(=N)N)C(=O)N[C@@H](Cc1c[nH]c2ccccc12)C(=O)N[C@@H](Cc1ccccc1)C(=O)N[C@H](C(N)=O)C(C)C [RJK2] (H-RIVWVRIRRWFV-NH2) ?
Response: 29.6 ± 2.2%

Request: CC[C@H](C)[C@H](NC(=O)[C@H](CCCNC(=N)N)NC(=O)[C@@H](NC(=O)[C@H](C)NC(=O)[C@@H](NC(=O)[C@@H](NC(=O)[C@H](CC(C)C)NC(=O)[C@H](CCCNC(=N)N)NC(=O)[C@@H](N)C(C)C)[C@@H](C)CC)C(C)C)C(C)C)C(=O)N[C@@H](Cc1c[nH]c2ccccc12)C(=O)N[C@@H](CCCNC(=N)N)C(=O)N[C@@H](CCCNC(=N)N)C(N)=O [IDR-1018] (H-VRLIVAVRIWRR-NH2; N-terminus and C-terminus assumed) ?
Response: 43.0 ± 0.2%

Request: CC[C@H](C)[C@H](NC(=O)[C@H](C)NC(=O)[C@H](Cc1c[nH]cn1)NC(=O)[C@@H]1CCCN1C(=O)[C@@H](NC(=O)[C@H](CC(C)C)NC(=O)[C@H](CO)NC(=O)[C@H](Cc1ccccc1)NC(=O)[C@H](CC(C)C)NC(=O)[C@@H](N)Cc1ccccc1)[C@@H](C)CC)C(=O)NCC(=O)NCC(=O)N[C@@H](CC(C)C)C(=O)N[C@H](C(=O)N[C@@H](CO)C(=O)N[C@@H](C)C(=O)N[C@@H](Cc1ccccc1)C(=O)N[C@@H](CCCCN)C(N)=O)[C@@H](C)CC [AamAP1] ?
Response: 100.0 ± 4.1%

Request: CC[C@H](C)[C@H](NC(=O)[C@H](CCCNC(=N)N)NC(=O)[C@H](Cc1ccccc1)NC(=O)[C@H](CCCNC(=N)N)NC(=O)[C@@H](N)CCCCN)C(=O)N[C@@H](CCCNC(=N)N)C(=O)N[C@H](C(=O)N[C@@H](CCCNC(=N)N)C(=O)N[C@H](C(=O)N[C@H](C(=O)N[C@@H](CCCNC(=N)N)C(=O)N[C@@H](CCCCN)C(N)=O)[C@@H](C)CC)C(C)C)C(C)C [HH15] (H-KRFRIRVRVIRK-NH2) ?
Response: 4.5 ± 1.9%

Request: CC[C@H](C)[C@H](NC(=O)[C@H](CCCNC(=N)N)NC(=O)[C@@H](N)Cc1ccccc1)C(=O)N[C@@H](CCCNC(=N)N)C(=O)N[C@H](C(=O)N[C@@H](CCCNC(=N)N)C(=O)N[C@H](C(N)=O)C(C)C)C(C)C [FV7] (H-FRIRVRV-NH2; N-terminus assumed) ?
Response: 4.4 ± 0.3%

Request: CC(=O)N[C@@H](CS)C(=O)O [N-Acetyl-L-cysteine, N-acetyl-L-cysteine] ?
Response: 0.7 ± 1.1%
